- Test system: skin barrier function in SDS-treated mice
- procedureDetails: Rough skin experiment, long term (28-day) oral administration: transepidermal water loss after SDS treatment
- Type: in vivo, HR-1 hairless mice
- conditionContext: 10 mM in drinking water; two hours after the second SDS treatment (28th day); negative control 2.4
parameter: Δ(delta) TEWL value (g/m^2/h)

# smilesRecord, system, parameter, measurementUnits, testValue
data = [
    ("N[C@H](CCC(=O)O)C(=O)O", "skin barrier function in SDS-treated mice", "Δ(delta) TEWL value", "g/m^2/h", "−0.9"),
    ("N[C@@H](CCC(=O)O)C(=O)O", "skin barrier function in SDS-treated mice", "Δ(delta) TEWL value", "g/m^2/h", 1.1),
    ("NC(=O)CC[C@@H](N)C(=O)O", "skin barrier function in SDS-treated mice", "Δ(delta) TEWL value", "g/m^2/h", 3.3),
    ("NC(=O)CC[C@H](N)C(=O)O", "skin barrier function in SDS-treated mice", "Δ(delta) TEWL value", "g/m^2/h", 2.3),
]
